Origin of measurements: the supplement of paper PMC9170038

tested on: MS2 coat protein; test: apparent KD of MS2 coat protein; designed switch direction (-1 OFF switch, 1 ON switch): 1; higher = weaker reporter binding; details: input ligand: FMN 200 uM
value_type: apparent KD of MS2 coat protein (nM)
Value expressed in nM; do not type the unit.

GUUACAUGAGGAUCACCCAUGUAUGUGUGGGAGUAAGUGUCUUAGGAUAUCUAUUAUUUUAAUUAAGAGAAGGAAGAUUGUUGU [JMF's solution 20] (Eterna round: R96, puzzle: Same State NG 3)	98.6
GCUCGAUGAUAGGCCUACAUGAGGAUCACCCAUGUGACUGGGCAGGAUAUCUAAAUGCAGAAUGUAGAGAAGGGCCCGUCGAGC [SameState NG3 #52] (Eterna round: R96, puzzle: Same State NG 3)	269
ACAUGAGACAUAGGAUAUGUUGUACCUACAUGUGACAUGAGGAUCACCCAUGUGGUAAGUAUGAGACAGAAGGAUGAGAUAUGU [Equivalence 30 - Jieux - Same State NG 2] (Eterna round: R96, puzzle: Same State NG 2)	27.5
GCUGGAACUCACAUGAGGAUCACCCAUGUUCCGGAAACGGCACAGGAUAUCUGUCCGAAAAGGUCAGAGAAGGGUGUAACCAGC [Fiskers NG3ss - 87] (Eterna round: R96, puzzle: Same State NG 3)	137
AGGACGAGCACAGGAUAUCCGCGGAACAGCCGCGGAGAAGGGUGAAGUCAUGGAAAGAAAAGACAUGAGGAUCACCCAUGUAAA [Ageteerer] (Eterna round: R96, puzzle: Same State NG 1)	223
GAGUGGCAGUUAGGAUAUAUAGUGAUAAUGAUAAUAGAAGGAACAGACAUGAGGAUCACCCAUGUAGGACUAAUCCAGAGAGAG [Parity 34 - Jieux - Same State NG 1] (Eterna round: R96, puzzle: Same State NG 1)	32.3

Input line: Note down apparent KD of MS2 coat protein recorded for AGAUCAUGACGAGGAUAUGCAACAUGAGGAUCACCCAUGUAUGUUGCAGGACGCGUACGUCCAAUGUAGAAGGCGUCGUGGUCA [JL SSNG2 1.06] (Eterna round: R96, puzzle: Same State NG 2)
Output line: 40.2

Input line: Note down apparent KD of MS2 coat protein recorded for AUCCCAUCGGGAGGAUAUGGAACCUUAUUGGUUCCAGAAGGUCCAACAUGAGGAUCACCCAUGUGGGAGUGGUCUAAUGACCAC [Fiskers NG1ss - 29] (Eterna round: R96, puzzle: Same State NG 1)
Output line: 222

Input line: Note down apparent KD of MS2 coat protein recorded for UCUGCUGCCCAAGGAUAUCAGCGUGGUAUCCACAUGAGGAUCACCCAUGUAGGUCAGCACUACCCUGAGAAGGUGGGAAAAUAA [Eternabot solution 2] (Eterna round: R96, puzzle: Same State NG 2)
Output line: 14.4

---

tested on: MS2 coat protein; test: apparent KD of MS2 coat protein; designed switch direction (-1 OFF switch, 1 ON switch): -1; higher = weaker reporter binding; settings: input ligand: FMN 200 uM
Given measured apparent KD of MS2 coat protein, output Criterion met if it is greater than or equal to 40 nM and Criterion not met if not.

Field: example entries. Status: answers known.
ACAAGCUUUUAGAUUCUUAACAUGAGGAUCACCCAUGUGCUCGUCUUAUUGGCCGGCCGGCCGCCGGCCGGCCGGCC (Eterna round: R97, puzzle: Sensor, turn-off variant 1)	Criterion met
UUGCCACAUGAGGAUCACCCAUGUGAGGAUAUGGCCCGCCCGGCGUGUGCUGGUUUUGUCAGAAGGCGCGUGGG [salish99_ex1_r4_029] (Eterna round: R97, puzzle: Exclusion 1)	Criterion met
CGGGCCGGCCUUCCGGCCGGCCCGACAUGAGGAUCACCCAUGUAGGAUAUCCCGGCUGCCGGCCGGGAGAAGGGCGUGCGUCCU [-50.4, -49.5 kcal, 14% A] (Eterna round: R96, puzzle: Exclusion NG 3)	Criterion met
CCUCUACAUGAGGAUCACCCAUGUGAGGAUAUCAGUGCAAAGGGCACGUAUUAAAACGUGAGAAGGCACAUGGG [EX1 A.17] (Eterna round: R97, puzzle: Exclusion 1)	Criterion met

Input line: Identify whether the reported apparent KD of MS2 coat protein of the following sequence is 40 nM or greater: AAAAUAAAGAUGCCUUUAAACAUGAGGAUCACCCAUGUGAGUAAGGAUAUCGGAACCAAUCGCGACGAGAAGGUACUCGCGUGU [Relela] (Eterna round: R96, puzzle: Exclusion NG 3)
Output line: Criterion not met

Input line: Identify whether the reported apparent KD of MS2 coat protein of the following sequence is 40 nM or greater: ACAUGUCAUUGAGGAUAUCGCACACAUGAGGAUCACCCAUGUAAACGGAUGCUCUUUCGUGGUUUCGAGAAGGCGAUGUACAUU [Ex NG2 #97] (Eterna round: R96, puzzle: Exclusion NG 2)
Output line: Criterion met

Input line: Identify whether the reported apparent KD of MS2 coat protein of the following sequence is 40 nM or greater: AAAAAACAUGAGGAUCACCCAUGUAAGGAUAUCUAAAAUAAAAGAAAAAUAAAGAAAAGGAGAAGGUACAAGGA [JL wbt mod 25] (Eterna round: R96, puzzle: Exclusion 1)
Output line: Criterion not met

---

tested on: MS2 coat protein; assay: apparent KD of MS2 coat protein, switch ON state; designed switch direction (-1 OFF switch, 1 ON switch): 1; higher = weaker reporter binding; details: FMN input: 0 or 200 uM; Eterna round: R93 (includes R88 designs)
Given measured apparent KD of MS2 coat protein, output True if it is greater than or equal to 80 nM and False if not.

Field: example entries. Status: answers known.
AGAAAUAAAAGAGAGGAUAUCCAAAAAGGGACAUGAGGAUCACCCAUGUAAAAGAAAAUAAAAUGGGAGAAGGCUCAAAAUAAAG [80%, More Helter Skelter 2]	True
UAACAGCACAGGUAGGAUAUGUAGGGUGGUACAUGAGGAUCACCCAUGUAUCCACCCUUCGAAAGGCAGAAGGGCCUGUCGCUAC [Velabibe]	False
GGGAGGAAGAGAGAGGAUAUCCAAAGGAAAACAUGAGGAUCACCCAUGUAAAAGGUAGGAAAUUGGGAGAAGGCUCAAAAGAAGG [salish99-ss2-045]	False
AAUAACUAUAGCAAGGAUAUCCGAAACAAGACAUGAGGAUCACCCAUGUAAUAAGACAAAAUAUAGGAGAAGGUGCAGGGUGAAA [JR_SS002_Sub010]	False

Field: next sequence
Input line: Identify whether the reported apparent KD of MS2 coat protein of the following sequence is 80 nM or greater: AUAUAUAUAAGGUAGGAUAUCCAAAAAUCCACAUGAGGAUCACCCAUGUAAAGAAAGAAAAAAUGGGAGAAGGACCAUAUAUAUA [77%, More Tesla, 6]
Output line: False

---

tested on: K4 kissing-loop RNA reporter; assay: apparent KD of K4 kissing-loop reporter; higher = weaker reporter binding; settings: Eterna round: R107; input ligand: arginine 13.2 mM
value_type: apparent KD of K4 kissing-loop reporter (nM)
Value expressed in nM; do not type the unit.

Input line: Provide the reported apparent KD of K4 kissing-loop reporter (system: K4 kissing-loop RNA reporter) for UUGAUAUGAUAGUAUCCUGUUUGAUAAAGGCAGGAUAUCGAAAAUUCGAGAAGGGCCAUUAUAUGCAGUGAUGUUGCAAAUAAGU [Exclusion FMN A Gf 24]
Output line: 68.4

Input line: Provide the reported apparent KD of K4 kissing-loop reporter (system: K4 kissing-loop RNA reporter) for GGCCAAAGAGAGUGAUGUUCUCAAUAUGAAGGAGCGCCCGAAAGGGCAGGUAGGUCGCAUAACGGCCACCUACGAAAAGUAGGAA [#SwitchBubble 4 #K4Early]
Output line: 96.6

Input line: Provide the reported apparent KD of K4 kissing-loop reporter (system: K4 kissing-loop RNA reporter) for AAUAGGGAGUGAUGUUCCCUCACUUAUGAUACCAGUGCCAUCGGACACCCUUGGCAGCAUACGGGCAGUGAUGUUGUUCUUGGAA [Exclusion Theophylline A GF 25]
Output line: 148

---

Entries and their apparent KD of K4 kissing-loop reporter
tested on: K4 kissing-loop RNA reporter; experiment: apparent KD of K4 kissing-loop reporter; higher = weaker reporter binding; details: Eterna round: R107; input ligand: arginine 13.2 mM;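 note: bound reporter read as fluorescence of individual clusters on recovered sequencing chips by microscopy, with normalized cluster intensities fitted with a binding model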
Value expressed in µM; do not type the unit.

UACCUGCUGUCAGGAUAUGAGUGCAGUGAUGUUGCACUCAACGUAACCAUCUUGAAAUGCAAACACUCAGAAGGGACGCGCGAAG [Onaninso]	0.0998
CAUUACGGUCGCUUACCAAACCACUACUUCCGAGGACCGGUACGGCCGCCACUCGCCAGUGAUGUUGGCUCGGGCGGCCGAUUAU [Orrebeante]	0.103

Input line: Note down apparent KD of K4 kissing-loop reporter recorded for UUAAUAAUUCAAGGAUAUGUUUUCUAUUUCGAGUGAUGUUCGGUAUUAAUAAAUUUAAUAGAUUAUACAGAAGGUGAUGGAUAGU [Cynwulf-mod#5]
Output line: 0.101
